Test system: CAKI-1 renal
Assay: NCI-60 one-dose screen, 48 h
Conditions: 10 µM unless noted
About 83,000 compounds went through this panel and 20% of them were active in at least one assay; those are over-represented in the sample as a whole. Active and inactive are the calls of the source. Rule for the calls: active = growth percent below 10; inactive = the rest.
Respond with a class label; see TRUE for active, FALSE for inactive

Reference set (5 entries):
>>> qualitative_label("Cc1c(C(=O)NCCN2CCOCC2)cn2ncnc(Oc3ccc(NC(=O)Nc4ccc(Cl)c(C(F)(F)F)c4)cc3)c12")
"FALSE"
>>> qualitative_label("Cc1ncc(C(=O)Nc2ccc(CN3CCN(C)CC3)c(C(F)(F)F)c2)cc1C#Cc1ccc(N)nc1")
"TRUE"
>>> qualitative_label("Cc1ccccc1C(=O)NN")
"FALSE"
>>> qualitative_label("CCOC(=O)c1[nH]c(C)c(C(=O)OCc2ccccc2C#N)c1C")
"FALSE"
>>> qualitative_label("COc1ccc(-c2[nH]c3ccc(OC)cc3c2/C=C(\\C#N)S(=O)(=O)c2ccccc2)cc1")
"FALSE"

Request: Name the outcome recorded for C=C(C)C1CCC2(C)OC2C1 (stereo not given) in the assay.
Result: FALSE

Request: What classification did `Cc1cccc2c(=O)c3c(sc12)c(NCc1ccccc1)nc1ccccc13` end up with in this test?
Result: FALSE

Request: // outcome(item) with item = `CCCCOc1nc2c(C)cccc2cc1-c1cc(-c2ccc(Cl)cc2)nc(-c2ccc(Cl)cc2)c1`
Result: FALSE

Request: Hi, sorry to bother you, what did the test record for `O=c1c2cc(F)cc(Cl)c2sc2c(NCCCNCCO)nc3ccccc3c12` ?
Result: FALSE

Request: # lookup: test call for CC(=O)N1N=C(c2ccc(Nc3nc(Nc4ccc(F)cc4)nc(Nc4ccc(Cl)cc4)n3)cc2)CC1c1ccc(Cl)cc1 (stereo not given)
Result: FALSE

----------
Tested on: HCT-15 colon
Experiment: NCI-60 one-dose screen, 48 h (100 = growth as untreated, 0 = no growth, -100 = all killed)
Details: 10 µM unless noted
This is part of a sample that, as a whole, favours compounds with a hit. Of some 83,000 tested, about 20% had one in any assay.
measured quantity: growth (%)
One number for each entry, in %.

>>> result("CC([C@H]1CCC2C3CCC4C(=O)C(NC=O)=CC[C@]4(C)C3CC[C@@]21C)N(C)C (stereo partly specified)")
-37.1
>>> result("Cc1cccc2c1S/C(=C/c1ccc([N+](=O)[O-])cc1)C2=O")
100
>>> result("CS(=O)(=O)N(c1cc(-c2ccc3ncnc(Nc4ccc(F)c(Cl)c4)c3c2)cnc1Cl)S(C)(=O)=O")
29.5
>>> result("Cc1nn(-c2ccccc2)c(-n2ccnc2)c1/C=N/Nc1nc(-c2ccc(F)cc2)cs1")
76.8
>>> result("CC(C)C(=O)Nc1ccc(-c2nc(-c3cccc(OCCN4CCOCC4)c3)c(-c3ccnc(Br)c3)[nH]2)cc1")
20.1
>>> result("CCOC(=O)NCCc1ccccc1")
118
>>> result("CCCCn1c(-c2ccc(-c3nc(-c4ccc(Cl)cc4)no3)cc2)nc(-c2ccccc2)c1-c1ccccc1")
77.2
>>> result("COc1ccc(OC)c(/C=C2\\Oc3cc(OCCN4CCC(Cc5ccccc5)CC4)ccc3C2=O)c1")
24.3

Batch: growth for all items listed.
1. COc1ccc(S(=O)(=O)n2cc(C3OC(c4cc(OC)c(OC)c(OC)c4)=NN3C(C)=O)c3ccccc32)cc1OC (stereo unspecified)
2. CCOC(=O)c1c(C)oc2ncnc(N3CCN(C(=O)COc4ccc(C(C)(C)C)cc4)CC3)c12
3. NS(=O)(=O)c1ccc(-n2nc(-c3ccc(Cl)cc3)c3ccccc3c2=O)cc1
4. O=C1/C(=C/c2ccc(F)cc2)Sc2c(Br)cccc21
5. O=C(Nc1ccc(Cl)cc1F)c1ccccc1O
6. Cc1cc2nc3ccc(N=Nc4ccc(N(C)C)cc4)cc3n(-c3ccccc3)c-2cc1=N

Result:
81.8
79.8
94.5
75.8
42.7
-77.2

Give one value of growth per listed compound.
1. COc1ccc(-c2cc(-c3cc(OC)c(OC)c(OC)c3)nc(N3CCOCC3)c2C#N)cc1
2. c1ccc(Cc2nn3cc(-c4ccccc4)nc3s2)cc1
3. Cc1onc2c(-c3ccccc3)n[nH]c(=O)c12
4. Cc1nc2ccccc2n1CC1C(=O)NC(=O)NC1=O
5. CCCCCCN(CCCCCC)c1ccc(/C=C2/SC(=O)NC2=O)c(C)c1
6. O=C(O)CCC(=O)Nc1nnc(-c2ccccc2)s1
7. CN1C(=O)CNC(=O)[C@H](NC(=O)c2nc3ccccc3cc2O)CSSC[C@H]1C(=O)NCCc1nc2ccccc2cc1O

Result:
1: 66.6; 2: 95.1; 3: 104; 4: 106; 5: 75.7; 6: 93.7; 7: 99.7

----------
Tested on: NCI/ADR-RES ovarian
Assay: NCI-60 one-dose screen, 48 h (100 = growth as untreated, 0 = no growth, -100 = all killed)
Conditions: 10 µM unless noted
The panel holds about 83,000 compounds, 20% with a hit somewhere; the sample as a whole holds those more often.
For each record, write down the corresponding growth.
Numbers only, in %.

Kindly give each listed record's growth.
1. CSc1ccc2c(c1)c(CCN)c(C)n2Cc1ccc(Cl)c(Cl)c1
2. O=S(=O)(Nc1ccc(-c2nc(-c3cccc(OCCN4CCOCC4)c3)c(-c3ccnc(Br)c3)[nH]2)cc1)c1ccccc1
3. COc1ccc(/C=C(/C#N)n2nnc3cccc(F)c32)cc1
4. CNCCCC12CCC(c3ccccc31)c1ccccc12
5. COc1ccc(/C=N/Nc2cc(=O)[nH]c3ccc(Cl)cc23)cc1

Result:
1: -87.8; 2: 54.1; 3: -29.6; 4: 89.5; 5: 78

For each of the compounds below, note its growth.
1. Cc1ccc(-c2nc(N3CCN(C(=O)c4ccc(OC(F)(F)F)cc4)CC3)c3ccccc3n2)cc1
2. O=[N+]([O-])c1ccc(Oc2nc(Nc3ccc(O[C@H]4CO[C@H]5[C@@H]4OC[C@@H]5O)c(Cl)c3)ncc2F)c(Cl)c1
3. Cc1ccc(C(=O)NCCNc2nccc(-c3c(-c4cccc(F)c4)nc4sccn34)n2)cc1
4. COc1cc(C2CC(c3ccc(N(C)C)cc3)=NN2C(C)=O)cc(OC)c1OC (centres undefined)

Result:
84.4
81.3
55.6
-24.4

----------
Provide the reported growth of each item.
Test system: UACC-257 melanoma
Assay: NCI-60 one-dose screen, 48 h (100 = growth as untreated, 0 = no growth, -100 = all killed)
Conditions: 10 µM unless noted
About 83,000 compounds went through this panel and 20% of them were active in at least one assay; those are over-represented in the sample as a whole.
Give bare numbers, in %.

Hi! Can you tell me growth for each of these compounds?
1. CC(=O)O.CN1[CH-]N(Cc2ccc(C#N)cc2)c2ccccc21.[Ag+]
2. COc1ccc(-c2cc(-c3ccc(Cl)cc3)c(C#N)c(=O)n2CCCCCC(=O)Nc2ccccc2N)cc1

Result:
1. 81.2
2. 23.4

----------
System: OVCAR-8 ovarian
Test: NCI-60 one-dose screen, 48 h
Conditions: 10 µM unless noted
This is part of a sample that, as a whole, favours compounds with a hit. Of some 83,000 tested, about 20% had one in any assay. Activity calls are given as the source filed them. Rule for the calls: active = growth percent below 10; inactive = the rest.
The categories you may choose from are active, inactive

Completed entries (count: 5):
>>> qualitative_label("Cc1ccc2sc3c(NCCCN)nc4ccccc4c3c(=O)c2c1")
"inactive"
>>> qualitative_label("COc1cc(C)c(Cc2cnc(N)nc2N)cc1OC")
"inactive"
>>> qualitative_label("CCN(CC)CCNC(=O)c1cn2ncnc(Oc3ccc(NC(=O)Nc4ccc(Cl)c(C(F)(F)F)c4)cc3)c2c1C")
"active"
>>> qualitative_label("CC(C)OC(=O)Nc1ccc(-c2nc(-c3cccc(OCCN4CCOCC4)c3)c(-c3ccnc(Br)c3)[nH]2)cc1")
"inactive"
>>> qualitative_label("C[C@]12CC[C@@H]3c4cc(OC(F)F)c(OS(N)(=O)=O)cc4CC[C@H]3[C@@H]1CC[C@@H]2O")
"inactive"

Request: Recorded test call requested for `CCCCn1c(=O)c(-c2cc(-c3ccc(Cl)cc3)nc(-c3ccc(Cl)cc3)c2)cc2ccc(Cl)cc21`
Result: inactive

Request: Could you check what this test reported for `Cc1ccc(-c2nc(N3CCN(CC(=O)Nc4ccc(Cl)cc4)CC3)c3ccccc3n2)cc1` ?
Result: inactive

Request: Status in this test for `CCCCCCn1c(-c2ccc(C(=O)O/N=C(\N)c3ccc4c(c3)OCO4)cc2)nc(-c2ccccc2)c1-c1ccccc1` ?
Result: inactive

Request: Each compound tested received a call. Report the one for `Oc1ccc(C#CCOc2ccccc2)cc1CNCCN(Cc1ccccn1)Cc1ccccn1` .
Result: inactive

Request: Tell me the assay call for `COc1ccc(NC(=O)n2nc(/C=C\c3ccc(O)c(OC)c3)cc2/C=C\c2ccc(O)c(OC)c2)cc1` please.
Result: inactive

Request: # lookup: test call for `Cc1ccc2sc3c(NCCN)nc4ccccc4c3c(=O)c2c1`
Result: inactive

Request: // return assay outcome for `CCOC(=O)Nc1ccc(C(=O)/C=C/c2ccccc2)cc1`
Result: inactive

Request: Tell me the recorded outcome of this test for `CC(C)C(=O)Nc1ccc(-c2nc(-c3cccc(OCCN4CCOCC4)c3)c(-c3ccnc(Br)c3)[nH]2)cc1` .
Result: inactive

Request: Returns: the outcome recorded for CC1=C(SCCC(=O)OC(C[Se]C2=C(C)C(=O)c3ccccc3C2=O)C(=O)NC(C)(C)C)C(=O)c2ccccc2C1=O (stereo not given) in this assay.
Result: active

Values compiled from PubChem BioAssay (NCI).
